ASSAY_SUMMARY: PK data for BTK CTMs (in vivo plasma concentrations)
ASSAY_SETUP: Mouse Balb/c, 10 mg/kg PO
Listed next: entries and their corresponding AUC.

[
  {
    "COMPOUND": "NC(=O)c1ncc(N2CCCCC2)nc1Nc1ccc(C2CCN(C[C@@H]3CCN(c4ccc5c(c4)C(=O)N(C4CCC(=O)NC4=O)C5=O)C3)CC2)cc1 (stereo partly drawn)",
    "AUC (µM·h)": 16
  },
  {
    "COMPOUND": "CN1CCN([C@@H]2CCCN(c3cnc(C(N)=O)c(Nc4ccc(C5CN(CC6CCN(c7ccc8c(=O)n(C9CCC(=O)NC9=O)ccc8c7)CC6)C5)cc4)n3)C2)C1=O (stereo partly drawn)",
    "AUC (µM·h)": 0.078
  },
  {
    "COMPOUND": "CN1CCN([C@H]2CCCN(c3cnc(C(N)=O)c(Nc4ccc(C5CCN(CC6CCN(c7ccc(C(=O)NC8CCC(=O)NC8=O)nc7)CC6)CC5)cc4)n3)C2)C1=O (stereo partly drawn)",
    "AUC (µM·h)": 5.81
  }
]
